# Test system: NCI-H1417 complex spheroids, growth % test/control
# test.details: Anticancer human tumor NCI-H1417 cell line growth inhibition [Asc];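 note: spheroids exposed to compounds for 7 days; 100% = DMSO vehicle control wells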
# condition.parameters: second compound 10 µM; first compound 0.316 µM; hits give low values
Items are presented alongside their recorded viability, T/C.

C=CC(=O)N1CCN(c2nc(=O)n(-c3c(C)ccnc3C(C)C)c3nc(-c4c(O)cccc4F)c(F)cc23)C(C)C1 (centres undefined) + Cc1c(S(C)(=O)=O)c(-c2cc(F)cc(N3CCN(c4ccc(NS(=O)(=O)c5ccc(NC(CCN6CCC(C(=O)OCCCP(=O)(O)O)CC6)CSc6ccccc6)c(S(=O)(=O)C(F)(F)F)c5)cc4)CC3)c2)c(-c2ccc(Cl)cc2)n1C(C)C: 3.43%
CNC(C)C(=O)NC1CN(S(=O)(=O)c2cccc(S(=O)(=O)N3CCC4CCC(C(=O)NC(c5ccccc5)c5ccccc5)N4C(=O)C(NC(=O)C(C)NC)C3)c2)CCC2CCC(C(=O)NC(c3ccccc3)c3ccccc3)N2C1=O (centres undefined) + Cc1c(S(C)(=O)=O)c(-c2cc(F)cc(N3CCN(c4ccc(NS(=O)(=O)c5ccc(NC(CCN6CCC(C(=O)OCCCP(=O)(O)O)CC6)CSc6ccccc6)c(S(=O)(=O)C(F)(F)F)c5)cc4)CC3)c2)c(-c2ccc(Cl)cc2)n1C(C)C: 1.71%
CCN1CCN(Cc2ccc(Nc3ncc(F)c(-c4cc(F)c5nc(C)n(C(C)C)c5c4)n3)nc2)CC1 + Cc1c(S(C)(=O)=O)c(-c2cc(F)cc(N3CCN(c4ccc(NS(=O)(=O)c5ccc(NC(CCN6CCC(C(=O)OCCCP(=O)(O)O)CC6)CSc6ccccc6)c(S(=O)(=O)C(F)(F)F)c5)cc4)CC3)c2)c(-c2ccc(Cl)cc2)n1C(C)C: 2.26%

Continue with the next molecule.
**Query** Supply viability, T/C measured with NCI-H1417 complex spheroids, growth % test/control for C#Cc1c(F)ccc2cc(O)cc(-c3ncc4c(N5CC6CCC(C5)N6)nc(OCC56CCCN5CC(F)C6)nc4c3F)c12 (centres undefined) + Cc1c(S(C)(=O)=O)c(-c2cc(F)cc(N3CCN(c4ccc(NS(=O)(=O)c5ccc(NC(CCN6CCC(C(=O)OCCCP(=O)(O)O)CC6)CSc6ccccc6)c(S(=O)(=O)C(F)(F)F)c5)cc4)CC3)c2)c(-c2ccc(Cl)cc2)n1C(C)C .
**Result** 2.12%
